Target: Mmp7 (rat)
Assay: reporter assay of Huesken 2005
Conditions: siRNA
Oligonucleotides are given in HELM: sugar(base)linkage, 5' to 3'; d 2'-deoxyribose, r ribose, m 2'-O-methylribose, p phosphate. ss, as = sense and antisense strand
MEASUREMENT_KIND: normalised inhibition (eCFP-eYFP dual reporter)

RNA1{r(U)p.r(A)p.r(C)p.r(C)p.r(U)p.r(U)p.r(C)p.r(A)p.r(C)p.r(G)p.r(A)p.r(C)p.r(U)p.r(C)p.r(U)p.r(A)p.r(A)p.r(A)p.r(A)p.d(T)p.d(T)}|RNA2{r(U)p.r(U)p.r(U)p.r(U)p.r(A)p.r(G)p.r(A)p.r(G)p.r(U)p.r(C)p.r(G)p.r(U)p.r(G)p.r(A)p.r(A)p.r(G)p.r(G)p.r(U)p.r(A)p.d(A)p.d(A)}$$$RNA1{StrandType:ss}|RNA2{StrandType:as}$ :: 110%
RNA1{r(U)p.r(U)p.r(C)p.r(G)p.r(C)p.r(A)p.r(A)p.r(G)p.r(G)p.r(G)p.r(G)p.r(A)p.r(G)p.r(A)p.r(U)p.r(C)p.r(A)p.r(C)p.r(G)p.d(T)p.d(T)}|RNA2{r(C)p.r(G)p.r(U)p.r(G)p.r(A)p.r(U)p.r(C)p.r(U)p.r(C)p.r(C)p.r(C)p.r(C)p.r(U)p.r(U)p.r(G)p.r(C)p.r(G)p.r(A)p.r(A)p.d(G)p.d(C)}$$$RNA1{StrandType:ss}|RNA2{StrandType:as}$ :: 26.8%
RNA1{r(U)p.r(U)p.r(C)p.r(A)p.r(G)p.r(A)p.r(A)p.r(G)p.r(A)p.r(C)p.r(U)p.r(U)p.r(C)p.r(A)p.r(G)p.r(U)p.r(C)p.r(U)p.r(U)p.d(T)p.d(T)}|RNA2{r(A)p.r(A)p.r(G)p.r(A)p.r(C)p.r(U)p.r(G)p.r(A)p.r(A)p.r(G)p.r(U)p.r(C)p.r(U)p.r(U)p.r(C)p.r(U)p.r(G)p.r(A)p.r(A)p.d(T)p.d(G)}$$$RNA1{StrandType:ss}|RNA2{StrandType:as}$ :: 92.5%

---

Target: UBE2M
Experiment: reporter assay of Huesken 2005
Conditions: siRNA
Oligonucleotides are written 5' to 3', each unit as a sugar letter and its base; * is a phosphorothioate linkage, no mark a phosphodiester; rarer units and linkages stand in square brackets, end groups in braces. Plain capitals give the bases only. d = 2'-deoxy (DNA); r = 2'-OH (RNA)
Parameter: normalised inhibition (eCFP-eYFP dual reporter). Scope: all listed entries.
MEASUREMENT_KIND: normalised inhibition (eCFP-eYFP dual reporter) (%)

sense rCrUrUrCrUrCrArGrArUrCrCrArGrArCrGrArCdTdT / antisense rGrUrCrGrUrCrUrGrGrArUrCrUrGrArGrArArGdCdT :: 65.6
sense rUrGrCrArGrArArCrArArCrCrGrGrCrGrGrCrUdTdT / antisense rArGrCrCrGrCrCrGrGrUrUrGrUrUrCrUrGrCrAdGdG :: 67.6
sense rGrCrArGrCrArGrCrArArGrArArGrGrCrGrUrCdTdT / antisense rGrArCrGrCrCrUrUrCrUrUrGrCrUrGrCrUrGrCdCdC :: 61

---

Target: Cacnb1 (rat)
Experiment: reporter assay of Huesken 2005
Conditions: siRNA
Oligonucleotides are given in HELM: sugar(base)linkage, 5' to 3'; d 2'-deoxyribose, r ribose, m 2'-O-methylribose, p phosphate. ss, as = sense and antisense strand
Please mark condition met if the recorded normalised inhibition (eCFP-eYFP dual reporter) is equal to or greater than 40%, and condition not met if it falls below.

RNA1{r(G)p.r(C)p.r(C)p.r(A)p.r(A)p.r(A)p.r(A)p.r(C)p.r(C)p.r(G)p.r(C)p.r(C)p.r(U)p.r(C)p.r(A)p.r(G)p.r(C)p.r(U)p.r(C)p.d(T)p.d(T)}|RNA2{r(G)p.r(A)p.r(G)p.r(C)p.r(U)p.r(G)p.r(A)p.r(G)p.r(G)p.r(C)p.r(G)p.r(G)p.r(U)p.r(U)p.r(U)p.r(U)p.r(G)p.r(G)p.r(C)p.d(G)p.d(C)}$$$RNA1{StrandType:ss}|RNA2{StrandType:as}$ :: condition met
RNA1{r(C)p.r(U)p.r(G)p.r(G)p.r(C)p.r(U)p.r(G)p.r(A)p.r(G)p.r(G)p.r(U)p.r(A)p.r(C)p.r(A)p.r(G)p.r(A)p.r(G)p.r(U)p.r(G)p.d(T)p.d(T)}|RNA2{r(C)p.r(A)p.r(C)p.r(U)p.r(C)p.r(U)p.r(G)p.r(U)p.r(A)p.r(C)p.r(C)p.r(U)p.r(C)p.r(A)p.r(G)p.r(C)p.r(C)p.r(A)p.r(G)p.d(G)p.d(C)}$$$RNA1{StrandType:ss}|RNA2{StrandType:as}$ :: condition not met
RNA1{r(A)p.r(A)p.r(U)p.r(G)p.r(U)p.r(U)p.r(G)p.r(G)p.r(C)p.r(U)p.r(A)p.r(C)p.r(A)p.r(A)p.r(U)p.r(C)p.r(C)p.r(G)p.r(U)p.d(T)p.d(T)}|RNA2{r(A)p.r(C)p.r(G)p.r(G)p.r(A)p.r(U)p.r(U)p.r(G)p.r(U)p.r(A)p.r(G)p.r(C)p.r(C)p.r(A)p.r(A)p.r(C)p.r(A)p.r(U)p.r(U)p.d(T)p.d(G)}$$$RNA1{StrandType:ss}|RNA2{StrandType:as}$ :: condition met

---

Target: UBE2L3
Assay: reporter assay of Huesken 2005
Conditions: siRNA
Oligonucleotides are written 5' to 3', each unit as a sugar letter and its base; * is a phosphorothioate linkage, no mark a phosphodiester; rarer units and linkages stand in square brackets, end groups in braces. Plain capitals give the bases only. d = 2'-deoxy (DNA); r = 2'-OH (RNA)
This listing pairs substances with measured normalised inhibition (eCFP-eYFP dual reporter).
MEASUREMENT_KIND: normalised inhibition (eCFP-eYFP dual reporter) (%)

sense rArArCrUrGrGrArArGrCrCrArGrCrArArCrCrAdTdT / antisense rUrGrGrUrUrGrCrUrGrGrCrUrUrCrCrArGrUrUdTdT :: 71.8
sense rUrGrArUrArArGrGrGrArGrCrCrUrUrCrArGrAdTdT / antisense rUrCrUrGrArArGrGrCrUrCrCrCrUrUrArUrCrAdTdA :: 110
sense rUrCrCrArGrGrUrUrGrArUrGrArArGrCrUrArAdTdT / antisense rUrUrArGrCrUrUrCrArUrCrArArCrCrUrGrGrAdTdG :: 112
sense rArUrUrUrArArArArCrArArArGrArUrCrUrArUdTdT / antisense rArUrArGrArUrCrUrUrUrGrUrUrUrUrArArArUdGdT :: 65.5
sense rArUrUrGrArCrUrUrGrGrCrArArGrGrGrCrUrUdTdT / antisense rArArGrCrCrCrUrUrGrCrCrArArGrUrCrArArUdAdA :: 58.7
sense rGrArCrCrUrArGrCrUrGrArArGrArArUrArCrUdTdT / antisense rArGrUrArUrUrCrUrUrCrArGrCrUrArGrGrUrCdAdG :: 102
sense rCrCrCrGrCrUrUrCrGrGrGrCrUrGrArCrCrUrAdTdT / antisense rUrArGrGrUrCrArGrCrCrCrGrArArGrCrGrGrGdTdG :: 62.3
sense rUrGrUrCrUrGrCrCrArGrUrArArUrUrArGrUrGdTdT / antisense rCrArCrUrArArUrUrArCrUrGrGrCrArGrArCrAdGdA :: 51.7
sense rArArCrCrGrArCrCrArArGrUrArArUrCrCrArGdTdT / antisense rCrUrGrGrArUrUrArCrUrUrGrGrUrCrGrGrUrUdTdT :: 66.6
sense rCrCrArArArCrArUrCrGrArCrGrArArArArGrGdTdT / antisense rCrCrUrUrUrUrCrGrUrCrGrArUrGrUrUrUrGrGdGdT :: 59.4
sense rUrCrArUrArGrCrArCrUrGrGrUrGrArArUrGrAdTdT / antisense rUrCrArUrUrCrArCrCrArGrUrGrCrUrArUrGrAdGdG :: 77.5
sense rCrCrArArArArCrCrGrArCrCrArArGrUrArArUdTdT / antisense rArUrUrArCrUrUrGrGrUrCrGrGrUrUrUrUrGrGdTdT :: 84.6

---

Biological target: UBE2N
Assay: reporter assay of Huesken 2005
Settings: siRNA
Oligonucleotides are given in HELM: sugar(base)linkage, 5' to 3'; d 2'-deoxyribose, r ribose, m 2'-O-methylribose, p phosphate. ss, as = sense and antisense strand
Entries and their measured normalised inhibition (eCFP-eYFP dual reporter) follow.
MEASUREMENT_KIND: normalised inhibition (eCFP-eYFP dual reporter) (%)

RNA1{r(A)p.r(A)p.r(G)p.r(C)p.r(C)p.r(A)p.r(U)p.r(A)p.r(G)p.r(A)p.r(A)p.r(A)p.r(C)p.r(A)p.r(G)p.r(C)p.r(U)p.r(A)p.r(G)p.d(T)p.d(T)}|RNA2{r(C)p.r(U)p.r(A)p.r(G)p.r(C)p.r(U)p.r(G)p.r(U)p.r(U)p.r(U)p.r(C)p.r(U)p.r(A)p.r(U)p.r(G)p.r(G)p.r(C)p.r(U)p.r(U)p.d(G)p.d(G)}$$$RNA1{StrandType:ss}|RNA2{StrandType:as}$ :: 90.4
RNA1{r(C)p.r(C)p.r(C)p.r(A)p.r(A)p.r(G)p.r(C)p.r(C)p.r(A)p.r(U)p.r(A)p.r(G)p.r(A)p.r(A)p.r(A)p.r(C)p.r(A)p.r(G)p.r(C)p.d(T)p.d(T)}|RNA2{r(G)p.r(C)p.r(U)p.r(G)p.r(U)p.r(U)p.r(U)p.r(C)p.r(U)p.r(A)p.r(U)p.r(G)p.r(G)p.r(C)p.r(U)p.r(U)p.r(G)p.r(G)p.r(G)p.d(C)p.d(T)}$$$RNA1{StrandType:ss}|RNA2{StrandType:as}$ :: 60.2
